Target: T1, human EphB4 (Homo sapiens, UniProt P54760)
T1 construct: a protein of the extracellular region of each human Eph receptor fused with the SEAP protein and the His tag; made in house; host or cells: Expi293F cells
T1 sequence (P54760 16-539 limits assumed): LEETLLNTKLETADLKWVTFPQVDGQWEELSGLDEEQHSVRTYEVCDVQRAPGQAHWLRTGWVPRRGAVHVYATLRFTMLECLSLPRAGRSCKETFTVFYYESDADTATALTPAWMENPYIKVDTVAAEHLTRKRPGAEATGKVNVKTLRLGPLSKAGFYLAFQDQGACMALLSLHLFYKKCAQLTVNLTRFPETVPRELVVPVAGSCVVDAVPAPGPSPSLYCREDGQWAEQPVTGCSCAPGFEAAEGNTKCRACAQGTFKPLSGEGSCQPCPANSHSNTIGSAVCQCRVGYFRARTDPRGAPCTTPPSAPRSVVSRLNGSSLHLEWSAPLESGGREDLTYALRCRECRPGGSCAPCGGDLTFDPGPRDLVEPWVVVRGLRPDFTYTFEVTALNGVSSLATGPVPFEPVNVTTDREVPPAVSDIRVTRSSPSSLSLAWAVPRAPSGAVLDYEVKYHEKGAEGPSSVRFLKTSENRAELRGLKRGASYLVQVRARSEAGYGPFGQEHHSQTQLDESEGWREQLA
Assay: Selectivity ELISA of humanized antibodies for human Eph receptor
Type: binding
Details: coated protein 1 nM
Exercise: state measured hEphB4-SEAP-: absorbance at 450 nm, percentage with respect to hEphA4-SEAP-His as 100% for each of the molecules provided.
Please respond with the number in % and leave the unit unwritten.

Q. Using the record for 93 (antibody, V domains shown, constant regions without entry; synthetic humanized antibody light chain variable region sequence; synthetic humanized antibody heavy chain variable region sequence) VL: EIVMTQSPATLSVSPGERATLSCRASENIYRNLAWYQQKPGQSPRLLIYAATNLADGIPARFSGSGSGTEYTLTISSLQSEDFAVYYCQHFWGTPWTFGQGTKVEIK VH: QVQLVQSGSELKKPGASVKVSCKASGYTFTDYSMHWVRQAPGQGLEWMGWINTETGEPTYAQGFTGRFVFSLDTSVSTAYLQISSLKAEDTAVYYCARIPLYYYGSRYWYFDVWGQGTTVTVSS , report its hEphB4-SEAP-: absorbance at 450 nm, percentage with respect to hEphA4-SEAP-His as 100%.
A. 5.0

Q. Also need 158 (antibody, V domains shown, synthetic humanized antibody heavy chain variable region sequence; synthetic humanized antibody light chain variable region sequence) VH: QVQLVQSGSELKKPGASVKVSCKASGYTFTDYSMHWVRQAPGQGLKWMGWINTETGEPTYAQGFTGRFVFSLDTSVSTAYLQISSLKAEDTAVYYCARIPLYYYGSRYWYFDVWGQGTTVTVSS VL: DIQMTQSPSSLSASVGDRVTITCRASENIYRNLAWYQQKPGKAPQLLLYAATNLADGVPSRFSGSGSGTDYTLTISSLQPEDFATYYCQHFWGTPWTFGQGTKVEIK , thanks.
A. 6.5

Q. Ok, now 134 (antibody, V domains shown, synthetic humanized antibody heavy chain variable region sequence; synthetic humanized antibody light chain variable region sequence) VH: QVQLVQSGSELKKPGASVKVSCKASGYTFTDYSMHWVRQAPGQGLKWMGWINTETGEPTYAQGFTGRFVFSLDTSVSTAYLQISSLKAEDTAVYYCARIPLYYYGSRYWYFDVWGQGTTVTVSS VL: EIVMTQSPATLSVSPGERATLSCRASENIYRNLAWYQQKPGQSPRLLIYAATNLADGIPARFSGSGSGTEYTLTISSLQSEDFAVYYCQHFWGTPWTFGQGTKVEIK
A. 5.1

Q. Same question, 81 (antibody, V domains shown, constant regions without entry; synthetic humanized antibody light chain variable region sequence; synthetic humanized antibody heavy chain variable region sequence) VL: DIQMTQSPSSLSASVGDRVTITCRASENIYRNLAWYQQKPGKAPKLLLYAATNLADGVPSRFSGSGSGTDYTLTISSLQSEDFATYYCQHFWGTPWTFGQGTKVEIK VH: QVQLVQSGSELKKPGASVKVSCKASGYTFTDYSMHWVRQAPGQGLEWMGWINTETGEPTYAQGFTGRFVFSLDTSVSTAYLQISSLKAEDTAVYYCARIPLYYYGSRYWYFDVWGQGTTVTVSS this time
A. 5.0

Q. Now consider 76 (antibody, V domains shown, synthetic humanized antibody heavy chain variable region sequence; synthetic humanized antibody light chain variable region sequence) VH: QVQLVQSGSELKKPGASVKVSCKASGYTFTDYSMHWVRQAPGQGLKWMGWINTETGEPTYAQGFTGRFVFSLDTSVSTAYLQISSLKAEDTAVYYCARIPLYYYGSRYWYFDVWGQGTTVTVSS VL: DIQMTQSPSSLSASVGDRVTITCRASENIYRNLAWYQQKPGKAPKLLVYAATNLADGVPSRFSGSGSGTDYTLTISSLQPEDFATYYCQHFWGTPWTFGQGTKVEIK .
A. 5.2

Q. Please give the result for 154 (antibody, V domains shown, synthetic humanized antibody heavy chain variable region sequence; synthetic humanized antibody light chain variable region sequence) VH: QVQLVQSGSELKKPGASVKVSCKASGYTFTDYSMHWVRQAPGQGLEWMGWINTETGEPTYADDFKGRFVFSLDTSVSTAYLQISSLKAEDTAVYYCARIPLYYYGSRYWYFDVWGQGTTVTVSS VL: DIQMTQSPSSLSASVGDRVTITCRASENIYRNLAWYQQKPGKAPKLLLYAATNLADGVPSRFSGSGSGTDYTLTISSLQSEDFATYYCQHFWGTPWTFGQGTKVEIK too.
A. 6.4

Q. Then 155 (antibody, V domains shown, synthetic humanized antibody heavy chain variable region sequence; synthetic humanized antibody light chain variable region sequence) VH: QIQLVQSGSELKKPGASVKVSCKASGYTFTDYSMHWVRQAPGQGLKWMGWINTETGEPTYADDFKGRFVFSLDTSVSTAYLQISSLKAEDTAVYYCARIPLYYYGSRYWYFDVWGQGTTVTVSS VL: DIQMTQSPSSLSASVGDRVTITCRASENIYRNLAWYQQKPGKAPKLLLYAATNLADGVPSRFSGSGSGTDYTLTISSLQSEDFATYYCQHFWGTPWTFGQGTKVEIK ?
A. 5.7
